Target: T1, CD134 protein (His-tagged, Sino Biological Inc. 10481-H08H) (human, UniProt P43489 29-216)
T1 construct: bought protein coated on ELISA plates; also called OX40; TNFRSF4; not shown: His tag
T1 sequence (looked up): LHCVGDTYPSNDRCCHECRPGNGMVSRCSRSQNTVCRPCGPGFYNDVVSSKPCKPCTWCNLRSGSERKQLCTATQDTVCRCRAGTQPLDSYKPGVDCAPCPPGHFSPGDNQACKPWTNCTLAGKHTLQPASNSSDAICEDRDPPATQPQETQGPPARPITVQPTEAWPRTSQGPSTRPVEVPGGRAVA
Experiment: ELISA, coated His-tagged CD134; note: test concentration or dose not given here
I'd be grateful if you could share measured ELISA [abs. corr.] for these entries.
Answers are plain numbers, in abs. corr..

Below, 2 binders whose answers are already recorded.
# binder, ELISA [abs. corr.], abs. corr.
data = [
    ("P018.S.12.A.G02 (antibody, V domains shown, V regions on human Ig constant parts; also called AB134_84) VH: QSLEESGGRLVTPGTPLTLTCTASGFSLNMFYMIWVRQAPGKGLEWIGMIDSMGSAWYASWAKGRFTISKTSTAVALKITSPTTEDTATYFCARAINGDGAGDLWGQGTLVTVSS VL: DVVMTQTPASVSAAVGGTVTINCRASEKIDSFLAWYQQKPGQPPKLLIYGASELAPGVPSRFSGSGSGTDYTLTISALESADAATYYCQSTADGSDYVGTFGGGTEVVVK", 2.33),
    ("P018.S.12.A.A04 (antibody, V domains shown, V regions on human Ig constant parts; also called AB134_53) VH: QSVEESGGRLVTPGTPLTLTCTVSGIDLSSYAMSWVRQAPGKGLEYIGIISGSGNTYYASWAKGRFTISKTSTTVDLKISSPTTEDTATYFCCRGDPSYSIDGFDPWGPGTLVTVSS VL: AAVLTQTPSPVSAAVGGTVTINCQSSQSVYNNNDLAWYQQKPGQPPKLLIYRASNLASGVPSRFSGSGSGTQFTLTISGVQSGDAATYYCLGAWDDDADTWAFGGGTEVVVE", 1.99),
]

# input for lookup
Name the reported ELISA [abs. corr.] value associated with the binder P018.S.12.A.D02 (antibody, V domains shown, V regions on human Ig constant parts; also called AB134_67) VH: QSVEESGGRLVTPGTPLTLTCTVSGFSLRHYAMSWVRQAPGKGLEWIGVITTTANTYYASWAKGRFTVSKASSTTVDLKIMSPTIEDTATYFCARAMGLYDSYVDVDDTHDAFDPWGPGTLVTVSS VL: AQVLTQTASPVSAAVGGTVTINCQSSQSVYNSHVLSWYQQKPGQPPKLLIYDASNLASGVPSRFSASGSGTQFTLTISGVQSDDAATYYCLGGYDDDADNIFAFGGGTEVVVA
2.64
